tested on: A549 lung carcinoma cell line; assay: Cytotoxic assay; type: cell-based, human; settings: Homo sapiens, A549, 48 h, read-out: IC50 A549
experimental.readout: IC50 (nM)
Express it in nM; write the number only.

So for COc1cccc2c1C(=O)c1c(O)c3c(c(O)c1C2=O)C[C@@](O)(C(=O)CO)C[C@@H]3O[C@H]1C[C@H](N)[C@H](O)[C@H](C)O1 , the logged IC50 turned out to be 310

###

system: MOLT-3 lymphoblastic leukemia cell line; experiment: Cytotoxic assay; assay type: cell-based, human; conditions: Homo sapiens, MOLT-3, 48 h, read-out: IC50 MOLT-3
experimental.readout: pIC50
Formally, pIC50 is defined as -log10 of the concentration c, with c in mol/L.

So for COc1cc([C@@H]2c3cc4c(cc3[C@@H](O[C@@H]3O[C@@H]5CO[C@@H](C)O[C@H]5[C@H](O)[C@H]3O)[C@H]3COC(=O)[C@H]23)OCO4)cc(OC)c1O [Etoposide, etoposide] , the logged pIC50 turned out to be 7.22
